Cited source: patent US8119630B2

Entries annotated with measured TC50 (6d)
# System: Vero cells
# Method: Simultaneous toxicity investigation (XTT), Vero cells
# Assay type: cell-based
# Design: unit not given here
# Condition: Table 2, Examples 83 to 124, 6d
Parameter: TC50 (6d)

>>> df
                                    molecule  tested_system  qualifier_operator  numeric_value
 0  COc1cccc(C(=O)NC2N=C(c3ccccc3)c3ccccc3NC2=O)c1[N+](=O)[O-] (centres unmarked) [Example 90]     Vero cells                   =            100
 1  COc1ccc(CCC(=O)NC2N=C(c3ccccc3)c3ccccc3NC2=O)cc1 (centres unmarked) [Example 98]     Vero cells                   >            100
 2  COc1ccc(Cl)cc1C(=O)NC1N=C(c2ccccc2)c2ccccc2NC1=O (centres unmarked) [Example 91]     Vero cells                   =            100
 3  COc1ccc(C(=O)NC2N=C(c3cccc(C(F)(F)F)c3)c3ccccc3NC2=O)cc1 (centres unmarked) [Example 105]     Vero cells                   >            100
 4  COc1cc(C(=O)NC2N=C(c3ccccc3)c3ccccc3NC2=O)ccc1[N+](=O)[O-] (centres unmarked) [Example 95]     Vero cells                   >            100
 5  COc1ccc(Br)c(C(=O)NC2N=C(c3ccccc3)c3ccccc3NC2=O)c1 (centres unmarked) [Example 108]     Vero cells                   >            100
 6  O=C(Nc1ccc(OC(F)(F)F)cc1)NC1N=C(c2ccccc2)c2ccccc2NC1=O (centres unmarked) [Example 116]     Vero cells                   =             20
 7  COc1ccc([N+](=O)[O-])c(C(=O)NC2N=C(c3ccccc3)c3ccccc3NC2=O)c1 (centres unmarked) [Example 94]     Vero cells                   >            100
 8  COc1ccc(C(=O)NC2N=C(c3ccccc3)c3ccccc3NC2=O)cc1[N+](=O)[O-] (centres unmarked) [Example 89]     Vero cells                   >            100
 9  COc1ccc(C(=O)NC2N=C(c3ccccc3F)c3cc(Cl)ccc3NC2=O)cc1 (centres unmarked) [Example 83]     Vero cells                   =             32
10  O=C(NCc1ccccc1F)NC1N=C(c2ccccc2)c2ccccc2NC1=O (centres unmarked) [Example 84]     Vero cells                   >            100
11  COc1ccccc1CCC(=O)NC1N=C(c2ccccc2)c2ccccc2NC1=O (centres unmarked) [Example 96]     Vero cells                   >            100
12  COc1cc(Cl)ccc1C(=O)NC1N=C(c2ccccc2)c2ccccc2NC1=O (centres unmarked) [Example 88]     Vero cells                   =             40
13  O=C(Nc1c(Cl)cccc1Cl)NC1N=C(c2ccccc2)c2ccccc2NC1=O (centres unmarked) [Example 124]     Vero cells                   =             60
14  Cc1cccc(CNC(=O)NC2N=C(c3ccccc3)c3ccccc3NC2=O)c1 (centres unmarked) [Example 86]     Vero cells                   =            100
15  CCOc1ccccc1C(=O)NC1N=C(c2ccccc2)c2ccccc2NC1=O (centres unmarked) [Example 106]     Vero cells                   >            100
16  COc1cccc(CCC(=O)NC2N=C(c3ccccc3)c3ccccc3NC2=O)c1 (centres unmarked) [Example 97]     Vero cells                   >            100
